Ref: ChEMBL document CHEMBL3352468

target: UniProt:Q92731; assay: Binding affinity to ERbeta (unknown origin) relative to estradiol
Sequence (Q92731 whole entry): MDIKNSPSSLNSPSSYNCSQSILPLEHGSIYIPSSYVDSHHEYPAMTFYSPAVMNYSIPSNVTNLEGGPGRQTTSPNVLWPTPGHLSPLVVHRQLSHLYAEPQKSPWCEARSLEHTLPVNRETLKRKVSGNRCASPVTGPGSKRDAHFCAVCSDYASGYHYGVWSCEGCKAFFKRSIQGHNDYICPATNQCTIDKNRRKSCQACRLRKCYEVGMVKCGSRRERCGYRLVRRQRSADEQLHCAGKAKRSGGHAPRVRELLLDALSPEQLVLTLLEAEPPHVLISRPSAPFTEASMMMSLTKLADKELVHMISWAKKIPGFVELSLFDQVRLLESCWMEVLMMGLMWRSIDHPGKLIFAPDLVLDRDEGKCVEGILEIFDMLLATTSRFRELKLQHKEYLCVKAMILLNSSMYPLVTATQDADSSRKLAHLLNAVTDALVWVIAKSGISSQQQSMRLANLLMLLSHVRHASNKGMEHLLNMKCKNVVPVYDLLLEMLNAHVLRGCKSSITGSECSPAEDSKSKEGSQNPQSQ
Property name: relative binding affinity (RBA)

The following compounds have reported results that may help.
C[C@]12CC=C(c3cc(F)c(O)cc3F)C[C@H]1CC[C@@H]2O | 2.7
C[C@]12CC=C(c3ccc(O)cc3F)C[C@@H]1CC[C@@H]2O | 38
C[C@]12CC=C(c3ccc(O)c(Cl)c3Cl)C[C@H]1CC[C@@H]2O | 55
Cc1c([C@H]2CC[C@@]3(C)[C@@H](CC[C@@H]3O)C2)cc(F)c(O)c1F | 0.226

1 = C[C@]12CC[C@H](c3ccc(O)cc3)C[C@@H]1CC[C@@H]2O
2 = C[C@]12CC=C(c3cc(F)c(O)c(F)c3Cl)C[C@H]1CC[C@@H]2O
3 = Cc1cc(O)ccc1[C@H]1CC[C@@]2(C)[C@@H](CC[C@@H]2O)C1
4 = C[C@]12CC=C(c3ccc(O)cc3F)C[C@H]1CC[C@@H]2O
5 = C[C@]12CC=C(c3ccc(O)c(F)c3Cl)C[C@H]1CC[C@@H]2O
Order the entries by their reported relative binding affinity (RBA), beginning at the minimum. Show the ranking through the labels, in the order asked for. 3, 2, 1, 4, 5

A = C[C@]12CC[C@H](c3ccc(O)c(F)c3)C[C@H]1CC[C@@H]2O
B = COc1cc(O)ccc1[C@H]1CC[C@@]2(C)[C@@H](CC[C@@H]2O)C1
Higher relative binding affinity (RBA) between A and B ? Pick one; state its label. A
(A: 8.7, B: 0.037)

====

species: Homo sapiens; experiment: Selectivity ratio of RBA for ERbeta (unknown origin) to RBA for ERalpha (unknown origin)
Property name: Selectivity ratio

P = COc1cc(O)ccc1C1=CC[C@@]2(C)[C@@H](CC[C@@H]2O)C1
Q = C[C@]12CC[C@H](c3cc(F)c(O)c(F)c3F)C[C@@H]1CC[C@@H]2O
Would you kindly point out which of P and Q has the smaller Selectivity ratio figure? Indicate your choice by writing its label. Q

a = C[C@]12CC[C@H](c3ccc(O)cc3F)C[C@@H]1CC[C@@H]2O
b = C[C@]12CC[C@H](c3ccc(O)c(F)c3F)C[C@@H]1CC[C@@H]2O
Select the item whose Selectivity ratio value is smaller, choosing between a and b . Refer to your chosen item by its label in the answer. a
(a: 3.2, b: 7.9)

====

species on record: Homo sapiens; assay: Selectivity ratio of RBA for ERbeta (unknown origin) to RBA for ERalpha (unknown origin)
Property name: Selectivity ratio

I = C[C@]12CC=C(c3ccc(O)c(F)c3Cl)C[C@H]1CC[C@@H]2O
II = C[C@]12CC=C(c3ccc(O)cc3Cl)C[C@@H]1CC[C@@H]2O
III = C[C@]12CC[C@H](c3ccc(O)cc3C(F)(F)F)C[C@@H]1CC[C@@H]2O
Order by Selectivity ratio, smallest first, the items presented above. I'd appreciate it if you listed the labels in the requested order. III, II, I
